All values here come from paper PMC10762375.

Target: hP2X3 K113A (Homo sapiens, UniProt P56373, K113A)
Sequence (P56373 whole entry K113A): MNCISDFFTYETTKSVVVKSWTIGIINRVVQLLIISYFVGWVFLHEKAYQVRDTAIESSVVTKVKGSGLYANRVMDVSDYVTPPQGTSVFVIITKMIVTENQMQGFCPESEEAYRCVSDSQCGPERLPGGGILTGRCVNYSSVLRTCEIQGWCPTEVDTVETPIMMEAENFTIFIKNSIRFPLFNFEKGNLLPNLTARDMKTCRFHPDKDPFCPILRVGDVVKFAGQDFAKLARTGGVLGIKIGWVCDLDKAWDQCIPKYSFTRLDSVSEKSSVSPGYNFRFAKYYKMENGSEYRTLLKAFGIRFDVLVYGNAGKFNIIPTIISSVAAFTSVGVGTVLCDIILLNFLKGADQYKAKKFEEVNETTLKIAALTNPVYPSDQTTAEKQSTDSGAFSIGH
Assay: Nystatin perforated patch recording of ATP-evoked currents, transfected HEK293 cells
MEASURED_PROPERTY: EC50 (nM)
Enter your answer as a number in nM; do not include the unit.

Please give the measured EC50 for this compound: Nc1ncnc2c1ncn2[C@@H]1O[C@H](COP(=O)(O)OP(=O)(O)OP(=O)(O)O)[C@@H](O)[C@H]1O [ATP]
872

###

Molecular target: hP2X3 R204A (Homo sapiens, UniProt P56373, R204A)
Sequence (P56373 whole entry R204A): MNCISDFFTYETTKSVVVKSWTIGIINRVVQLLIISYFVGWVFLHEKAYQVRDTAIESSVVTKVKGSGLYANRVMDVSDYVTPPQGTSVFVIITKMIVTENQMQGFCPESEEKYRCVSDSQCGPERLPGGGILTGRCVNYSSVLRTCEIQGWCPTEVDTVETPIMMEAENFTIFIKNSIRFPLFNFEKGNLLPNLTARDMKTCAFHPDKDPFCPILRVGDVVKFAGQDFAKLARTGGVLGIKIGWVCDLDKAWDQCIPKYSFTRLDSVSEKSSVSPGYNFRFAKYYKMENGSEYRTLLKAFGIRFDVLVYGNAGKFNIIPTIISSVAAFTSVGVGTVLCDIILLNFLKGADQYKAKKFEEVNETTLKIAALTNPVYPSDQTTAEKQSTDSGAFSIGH
Assay: Nystatin perforated patch recording of ATP-evoked currents, transfected HEK293 cells
MEASURED_PROPERTY: pEC50
By convention, pEC50 is the negative base-10 log of a molar concentration.

Record lookup: for hP2X3 R204A (Homo sapiens, UniProt P56373, R204A), what pEC50 belongs to Nc1ncnc2c1ncn2[C@@H]1O[C@H](COP(=O)(O)OP(=O)(O)OP(=O)(O)O)[C@@H](O)[C@H]1O ?
5.91

###

Target: rP2X2 K212A (Rattus norvegicus, UniProt P49653, K212A)
Sequence (P49653 1-472 K212A): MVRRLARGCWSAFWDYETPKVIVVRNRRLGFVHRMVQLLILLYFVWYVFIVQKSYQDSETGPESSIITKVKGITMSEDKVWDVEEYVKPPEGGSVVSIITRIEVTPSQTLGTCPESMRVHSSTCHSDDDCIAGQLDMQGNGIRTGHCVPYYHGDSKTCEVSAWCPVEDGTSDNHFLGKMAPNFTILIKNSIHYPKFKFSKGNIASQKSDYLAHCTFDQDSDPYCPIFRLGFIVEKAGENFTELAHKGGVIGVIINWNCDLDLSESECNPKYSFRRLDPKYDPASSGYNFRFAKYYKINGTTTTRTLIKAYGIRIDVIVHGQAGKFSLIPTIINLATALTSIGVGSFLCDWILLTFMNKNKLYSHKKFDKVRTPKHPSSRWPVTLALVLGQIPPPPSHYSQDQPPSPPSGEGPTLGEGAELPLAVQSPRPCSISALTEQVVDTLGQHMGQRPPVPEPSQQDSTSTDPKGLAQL
Test: Conventional whole-cell patch recording of ATP-evoked currents, transfected HEK293 cells
Conditions: rP2X2 K212A
MEASURED_PROPERTY: pEC50
By convention, pEC50 is the negative base-10 log of a molar concentration.

Record lookup: for rP2X2 K212A (Rattus norvegicus, UniProt P49653, K212A), what pEC50 belongs to Nc1ncnc2c1ncn2[C@@H]1O[C@H](COP(=O)(O)OP(=O)(O)OP(=O)(O)O)[C@@H](O)[C@H]1O [ATP] ?
5.01

###

Target: hP2X3 WT (Homo sapiens, UniProt P56373)
Sequence (P56373 whole entry): as the sequence (P56373 whole entry R204A) above, with A204R counted along it
Experiment: Nystatin perforated patch recording of ATP-evoked currents, transfected HEK293 cells
Conditions: Hill 1 fit
MEASURED_PROPERTY: pEC50
By convention, pEC50 is the negative base-10 log of a molar concentration.

Please give the measured pEC50 for this compound: Nc1ncnc2c1ncn2[C@@H]1O[C@H](COP(=O)(O)OP(=O)(O)OP(=O)(O)O)[C@@H](O)[C@H]1O
6.12

###

Target: rP2X2 WT (Rattus norvegicus, UniProt P49653)
Sequence (P49653 1-472): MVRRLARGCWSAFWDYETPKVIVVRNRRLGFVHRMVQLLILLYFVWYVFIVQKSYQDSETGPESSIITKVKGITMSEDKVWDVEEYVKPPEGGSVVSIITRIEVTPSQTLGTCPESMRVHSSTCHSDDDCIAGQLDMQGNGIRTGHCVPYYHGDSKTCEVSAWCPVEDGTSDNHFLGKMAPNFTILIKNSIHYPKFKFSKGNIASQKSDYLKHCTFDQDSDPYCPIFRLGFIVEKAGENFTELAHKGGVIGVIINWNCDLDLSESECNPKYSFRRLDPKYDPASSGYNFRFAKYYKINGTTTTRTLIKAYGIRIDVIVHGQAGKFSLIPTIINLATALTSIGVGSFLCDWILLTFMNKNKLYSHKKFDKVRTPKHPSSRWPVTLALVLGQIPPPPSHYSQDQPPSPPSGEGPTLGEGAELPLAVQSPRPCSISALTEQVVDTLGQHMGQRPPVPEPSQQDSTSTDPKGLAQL
Experiment: Conventional whole-cell patch recording of ATP-evoked currents, transfected HEK293 cells
Conditions: rP2X2 WT
MEASURED_PROPERTY: pEC50
By convention, pEC50 is the negative base-10 log of a molar concentration.

Please give the measured pEC50 for this compound: Nc1ncnc2c1ncn2[C@@H]1O[C@H](COP(=O)(O)OP(=O)(O)OP(=O)(O)O)[C@@H](O)[C@H]1O [ATP]
5.27

###

Molecular target: rP2X3 WT (Rattus norvegicus)
Construct: EGFP (only implied by the anti-EGFP blot of rP2X3 plasmids)
Sequence (P49654 1-397): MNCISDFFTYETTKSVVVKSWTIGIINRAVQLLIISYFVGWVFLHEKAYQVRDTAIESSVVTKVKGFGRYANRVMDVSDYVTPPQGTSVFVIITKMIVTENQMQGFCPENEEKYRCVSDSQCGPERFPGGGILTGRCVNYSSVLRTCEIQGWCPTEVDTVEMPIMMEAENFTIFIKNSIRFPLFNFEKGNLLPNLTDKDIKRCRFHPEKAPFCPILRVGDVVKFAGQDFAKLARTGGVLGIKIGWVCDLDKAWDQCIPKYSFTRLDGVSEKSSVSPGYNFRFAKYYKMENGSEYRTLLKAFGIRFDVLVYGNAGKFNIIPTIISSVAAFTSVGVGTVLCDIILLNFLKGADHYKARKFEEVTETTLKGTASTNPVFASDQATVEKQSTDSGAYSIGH
Assay: Nystatin perforated patch recording of ATP-evoked currents, transfected HEK293 cells
Conditions: Hill 1 fit, mean ± s.e.m.
MEASURED_PROPERTY: EC50 (nM)
Enter your answer as a number in nM; do not include the unit.

Record lookup: for rP2X3 WT (Rattus norvegicus), what EC50 belongs to Nc1ncnc2c1ncn2[C@@H]1O[C@H](COP(=O)(O)OP(=O)(O)OP(=O)(O)O)[C@@H](O)[C@H]1O ?
832

###

Target: rP2X3 K201C/V274C (Rattus norvegicus, UniProt P49654, K201C/V274C)
Construct: EGFP (only implied by the anti-EGFP blot of rP2X3 plasmids)
Experiment: Nystatin perforated patch recording of ATP-evoked currents, transfected HEK293 cells
Conditions: Hill 1 fit
MEASURED_PROPERTY: EC50

Please give the measured EC50 for this molecule: Nc1ncnc2c1ncn2[C@@H]1O[C@H](COP(=O)(O)OP(=O)(O)OP(=O)(O)O)[C@@H](O)[C@H]1O
12.9 µM
